target: second (BD2: amino acids E352-E168) bromodomain of BRD4 (Homo sapiens); construct: protocol; test: TR-FRET bromodomain binding assay, BRD4 BD2; conditions: TR-FRET assay protocol (A-G, compound concentration range); Ki calculated from IC50, probe Kd and probe concentration; read-out: TR-FRET Binding Ki: BRD4 (BDII_E352-M457)
READOUT NAME: Ki (µM)

QUERY SMILES: CCOc1cc(=O)n(C)cc1-c1cc(NS(=O)(=O)C[C@]23CC[C@H](CC2=O)C3(C)C)ccc1Oc1ccc(F)cc1F
ENDPOINT UNIT: µM
Ki: 0.0389
--
QUERY SMILES: Cc1cc(Oc2ccccc2)c(-c2ccc(=O)n(C)c2)cc1NS(C)(=O)=O
ENDPOINT UNIT: µM
Ki: 0.0316

(A) Cn1nc(-c2ccccc2Oc2ccccc2)c(-c2cccc(S(=O)(=O)N3CCCC3)c2)cc1=O
(B) Cn1nc(-c2ccccc2Oc2ccccc2)c(-c2ccc(C(=O)NCCC#N)cc2)cc1=O
Exercise: Select one: A or B . Criterion: greater recorded Ki. Your answer should be the label attached to the chosen record.
Key: A

###

target: second (BD2: amino acids E352-E168) bromodomain of BRD4 (Homo sapiens); construct: protocol; test: TR-FRET bromodomain binding assay, BRD4 BD2; conditions: TR-FRET assay protocol (A-G, compound concentration range); Ki calculated from IC50, probe Kd and probe concentration; read-out: TR-FRET Binding Ki: BRD4 (BDII_E352-M457)
READOUT NAME: Ki (nM)

COMPOUND: CN(C)c1cncc(-c2cc(=O)n(C)nc2-c2ccccc2Oc2ccccc2)c1 [Example 216]
Ki (nM): 462

(A) Cn1nc(-c2ccccc2Oc2ccccc2)c(-c2ccc3nsnc3c2)cc1=O [Example 137]
(B) Cn1nc(-c2ccccc2OCc2ccccc2)ccc1=O [Example 2]
Exercise: # return whichever of A and B has the smaller Ki // caller expects the label of the chosen entry
Key: A

(1) Cc1cc(-c2cc(NS(C)(=O)=O)ccc2Oc2ccccc2)c[nH]c1=O [Example 261]
(2) COCc1ccc(-c2cc(=O)n(C)nc2-c2ccccc2Oc2ccccc2)cc1 [Example 78]
Exercise: Hi, I'm comparing two records. Which one has the lower Ki, 1 or 2 ? Refer to your chosen item by its label in the answer.
Key: 1

(P) CCS(=O)(=O)Nc1ccc(Oc2ccc(F)cc2F)c(-c2cn(C)c(=O)cc2OC2COC2)c1 [Example 316]
(Q) CCNS(=O)(=O)c1ccc(Oc2ccccc2)c(-c2ccc(=O)n(C)c2)c1 [Example 255]
Exercise: From the recorded data, which exceeds the other in Ki: P or Q ? Answer by quoting the chosen item's label.
Key: Q

(A) CCOc1cc(=O)n(C)cc1-c1cc(NC(=O)C2(c3ccccc3)CC2)ccc1Oc1ccc(F)cc1F [Example 299]
(B) Cn1nc(-c2ccccc2Oc2ccccc2)ccc1=O [Example 1]
(C) Cn1cc(-c2ccccc2Oc2ccccc2)cc(Cl)c1=O [Example 281]
Exercise: Could you please order the items by Ki, going from the lowest number to the highest? Answer by listing the labels in the requested order.
Key: A, C, B

###

target: first (BD1: amino acids K57-E168) bromodomain of BRD4 (Homo sapiens, UniProt O60885); construct: His-tagged first (BD1: amino acids K57-E168); experiment: TR-FRET bromodomain binding assay, BRD4 BD1; details: TR-FRET assay protocol (D, E or G) per compound; Ki calculated from IC50, probe Kd and probe concentration; read-out: TR-FRET Binding Ki: BRD4 (BDI_K57-E168)
READOUT NAME: Ki (nM)

COMPOUND: CCOc1cc(=O)n(C)cc1-c1cc(CS(=O)(=O)CC)ccc1Oc1ccc(F)cc1F [Example 379]
Ki (nM): 62.1
//
COMPOUND: CCS(=O)(=O)Nc1ccc(Oc2ccc(F)cc2F)c(-c2cn(C)c(=O)cc2-c2cnn(Cc3ccccc3)c2)c1 [Example 390]
Ki (nM): 36.5
//
COMPOUND: CCOc1cc(=O)n(C)cc1-c1cc(S(C)(=O)=O)ccc1NCc1ccc(F)cc1F [Example 409]
Ki (nM): 2010
//
COMPOUND: CCOc1cc(=O)n(C)cc1-c1cc(NS(=O)(=O)c2ccc3ccccc3c2)ccc1Oc1ccc(F)cc1F [Example 418]
Ki (nM): 362
//
COMPOUND: CCOc1cc(=O)n(C)cc1-c1cc(NS(=O)(=O)CC)ccc1Oc1ccc(C(F)(F)F)cc1 [Example 386]
Ki (nM): 81.8

(I) CCS(=O)(=O)Nc1ccc(Oc2ccc(F)cc2F)c(-c2cn(C)c(=O)cc2-c2ccoc2)c1 [Example 393]
(II) CCOc1cc(=O)n(C)cc1-c1cc(NS(=O)(=O)CC)ccc1Oc1cc(F)c(F)c(F)c1 [Example 402]
Exercise: Of the pair I and II , name the member with the lesser recorded Ki. When you have decided, please share the label of that item.
Key: I

###

target: first (BD1: amino acids K57-E168) bromodomain of BRD4 (Homo sapiens, UniProt O60885); construct: His-tagged first (BD1: amino acids K57-E168); assay: TR-FRET bromodomain binding assay, BRD4 BD1; conditions: TR-FRET assay protocol (A-G, compound concentration range); Ki calculated from IC50, probe Kd and probe concentration; read-out: TR-FRET Binding Ki: BRD4 (BDI_K57-E168)
READOUT NAME: Ki (nM)

Example results:
COMPOUND: Cn1nc(-c2ccccc2Oc2ccccc2)c(-c2ccc(CO)cc2)cc1=O
ENDPOINT UNIT: nM
QUANTITATIVE RESULT: 126
//
COMPOUND: CCCS(=O)(=O)Nc1ccc(Oc2ccc(F)cc2F)c(-c2cn(C)c(=O)cc2OCC)c1
ENDPOINT UNIT: nM
QUANTITATIVE RESULT: 43.8
//
COMPOUND: Cn1nc(-c2ccccc2Oc2ccccc2)c(-c2ccc(C(O)C3CCCC3)cc2)cc1=O (centres unmarked)
ENDPOINT UNIT: nM
QUANTITATIVE RESULT: 632
//
COMPOUND: CNC(=O)c1cc(=O)n(C)cc1-c1cc(NS(C)(=O)=O)ccc1Oc1ccc(F)cc1F
ENDPOINT UNIT: nM
QUANTITATIVE RESULT: 916

(a) CC(C)Oc1ccc(-c2cc(=O)n(C)nc2-c2ccccc2Oc2ccccc2)cc1F
(b) CCS(=O)(=O)c1ccc(OCC2CC2)c(-c2cn(C)c(=O)cc2OC)c1
Exercise: Quick check, higher Ki between a and b ? Identify your pick by its label.
Key: a

###

target: second (BD2: amino acids E352-E168) bromodomain of BRD4 (Homo sapiens); construct: protocol; test: TR-FRET bromodomain binding assay, BRD4 BD2; conditions: TR-FRET assay protocol (A-G, compound concentration range); Ki calculated from IC50, probe Kd and probe concentration; read-out: TR-FRET Binding Ki: BRD4 (BDII_E352-M457)
pKi: −log10 of the molar value.
READOUT NAME: pKi

Examples from the recorded data:
COMPOUND: Cn1cc(-c2cc(NS(C)(=O)=O)ccc2Oc2ccc(Cl)cc2)ccc1=O
pKi: 6.96
//
COMPOUND: Cn1cc(-c2cc(NS(C)(=O)=O)ccc2Oc2cccc(Cl)c2)ccc1=O
pKi: 6.59
//
COMPOUND: COC(C)c1cccc(-c2cc(=O)n(C)nc2-c2ccccc2Oc2ccccc2)c1 (centres unmarked)
pKi: 5.39
//
COMPOUND: Cn1cc(-c2ccccc2Oc2ccccc2)ccc1=O
pKi: 6.06
//
COMPOUND: Cn1nc(-c2ccccc2Oc2ccccc2)c(-c2ccc(NS(C)(=O)=O)cc2)cc1=O
pKi: 7.20

(I) CCS(=O)(=O)Nc1ccc(Oc2ccc(F)cc2F)c(-c2cn(C)c(=O)cc2-c2ccc(CN(C)C)cc2)c1
(II) CCN(CC)C(=O)c1cc(F)cc(-c2cc(=O)n(C)nc2-c2ccccc2Oc2ccccc2)c1
(III) CCOc1cc(=O)n(C)cc1-c1cc(NC(=O)c2ccc(OC(C)C)cc2)ccc1Oc1ccc(F)cc1F
Exercise: Sort (3 compounds) by pKi: min first. Note for the reader: the ranking is given by listing the labels in the order requested.
Key: II, III, I

###

Target: second (BD2: amino acids E352-E168) bromodomain of BRD4 (Homo sapiens)
Construct: protocol
Test: TR-FRET bromodomain binding assay, BRD4 BD2
Details: TR-FRET assay protocol (A-G, compound concentration range); Ki calculated from IC50, probe Kd and probe concentration; read-out: TR-FRET Binding Ki: BRD4 (BDII_E352-M457)
Procedure: A time-resolved fluorescence resonance energy transfer (TR-FRET) assay was used to determine the affinities of compounds of the Examples listed in Table 1 for each bromodomain of BRD4. […] TR-FRET data were normalized to the means of 24 no-compound controls (“high”) and 8 controls containing 1 μM un-labeled probe (“low”). […] Inhibition constants (Ki) were calculated from the IC50s, probe Kd and probe concentration. […]
READOUT NAME: Ki (nM)

Sample answers from the record:
COMPOUND: Cn1nc(-c2ccccc2Cc2ccccc2)ccc1=O
Ki / nM: 1360
--
COMPOUND: CN1CCN(c2ncc(-c3cc(=O)n(C)nc3-c3ccccc3Oc3ccccc3)cn2)CC1
Ki / nM: 1130
--
COMPOUND: Cn1nc(-c2ccccc2Oc2ccccc2)c(-c2cncc(NC3CCCC3)c2)cc1=O
Ki / nM: 5470
--
COMPOUND: Cn1cc(-c2cc(NS(=O)(=O)CC(=O)O)ccc2Oc2ccccc2)ccc1=O
Ki / nM: 1130
--
COMPOUND: CCS(=O)(=O)Nc1ccc(Oc2ccc(OC3COC3)cc2F)c(-c2cn(C)c(=O)cc2OC2COC2)c1
Ki / nM: 1.67

(1) COc1cc(=O)n(C)nc1-c1cc(NC(C)=O)ccc1Oc1ccccc1
(2) Cn1nc(-c2ccccc2Oc2ccccc2)c(-c2cccc(N3CCOCC3)c2)cc1=O
(3) Cc1ccncc1-c1cc(=O)n(C)nc1-c1ccccc1Oc1ccccc1
(4) CCS(=O)(=O)Nc1ccc(Oc2ccc(F)cc2F)c(-c2cn(C)c(=O)cc2OCCN(C)C)c1
(5) CCS(=O)(=O)Nc1ccc(Oc2ccc(F)cc2F)c(-c2cn(C)c(=O)cc2-c2cscc2C=O)c1
Exercise: # rank_down: sort by Ki, max first Quick reminder: the answer is the labels in the order asked.
Key: 3, 2, 4, 5, 1
(3: 11800 nM, 2: 879 nM, 4: 551 nM, 5: 205 nM, 1: 103 nM)

(a) CC(O)c1ccc(-c2cc(=O)n(C)nc2-c2ccccc2Oc2ccccc2)cc1 (stereo not drawn)
(b) Cn1nc(-c2ccccc2Oc2ccccc2)c(-c2cc3ccccc3n2C)cc1=O
Exercise: Given the two records a and b , choose the one whose Ki value is lower. Answer by stating the label of the chosen item.
Key: a
(a: 128 nM, b: 10400 nM)

(I) Cn1nc(-c2ccccc2Oc2ccccc2)c(-c2ccc(CN3CCOCC3)cc2)cc1=O
(II) COc1cc(=O)n(C)cc1-c1cc(NS(C)(=O)=O)ccc1Oc1ccc(F)cc1F
Exercise: Between the entries labeled I and II , whose measured Ki is lower? Label of pick, please.
Key: II
(II: 10.9 nM, I: 159 nM)
